Ref: PubChem BioAssay (NCI)

- methodNotes: NCI Yeast Anticancer Drug Screen. Data for the cln2 rad14 strain (AID 165);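 also: 0% = growth equal to vehicle treated cultures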
- appliedConditions: S. cerevisiae cln2 rad14 strain, at 50.0 µM, active compounds read high
About 79,000 compounds went through this panel and 15% of them were active in at least one assay; those are over-represented in the sample as a whole.
assayEndpoint: growth inhibition (%)
Numbers only, in %.

Look over these answered cases.
{"compound": "COc1ccc(/C(C)=N/NC(=O)c2ccncc2)c(OC)c1", "growth inhibition (%)": -29.4}
{"compound": "O=C(O)c1oc2cccc3c2c1CCC3", "growth inhibition (%)": -10.3}
{"compound": "COCCCCCOC", "growth inhibition (%)": 6.6}
{"compound": "NCC(c1ccccc1)C1CCCCC1 (configuration not stated)", "growth inhibition (%)": -7.5}
{"compound": "Nc1nc(N)c(-c2ccccc2)c(CCC(=O)Nc2ccc(Cl)cc2)n1", "growth inhibition (%)": -27.9}
{"compound": "CC(=O)[C@H]1CC[C@H]2[C@@H]3CCC4=CC(=O)CC[C@]4(C)[C@H]3C[C@H](OS(=O)(=O)c3ccc(C)cc3)[C@]12C", "growth inhibition (%)": 38.7}
{"compound": "COc1ccc(NC(=O)CC(=O)n2nc(-c3ccccc3)c(N=Nc3ccccc3C)c2-c2ccccc2)cc1", "growth inhibition (%)": 7.8}
{"compound": "COCC(=O)Nc1ccccc1", "growth inhibition (%)": 1.55}

# return growth inhibition for each item in the list
1. CC1CCCCN1CCCO (configuration not stated)
2. C[n+]1ccc(/C=C/c2ccnc3c(O)cccc23)cc1

Response given:
[3.05, -7.3]

Give growth inhibition for all compounds that follow.
1. COc1ccc(C)cc1N
2. O=C(O)C1c2ccccc2C(C(=O)O)c2ccccc21 (configuration not stated)

Response given:
[24.4, 19.9]

Give growth inhibition for each listed item.
1. NC(N)=NC(N)=Nc1cccc(S(=O)(=O)c2cccc(N=C(N)N=C(N)N)c2)c1
2. CCCCC(CC)CNCC(CC)CCCC (configuration not stated)
3. CC(=O)OC1=C(C)C2=C3OC(=O)C(C)=C3CC[C@@]2(C)[C@@H](Cl)[C@@H]1Cl

Response given:
1: 12.8; 2: 40.6; 3: -5.85

# map each compound to its growth inhibition
1. CCN(CC)CCCCCCCNc1nccc2ccccc12
2. CC(C)(C)OC(=O)Cc1c[nH]c2ccccc12
3. ClC1=CC(Cl)=C2N=C(N3CCCC3)N=C3N=C(N4CCCC4)N=C1N32
4. Nc1ccc(C(=O)O)c([N+](=O)[O-])c1
5. OCC1(OC2OC(CF)C(O)C(O)C2O)OC(CF)C(O)C1O (configuration not stated)

Response given:
[-23.3, -19.1, -10.6, -30.9, -23.5]
